# test-summary: yeast display, Sf9 membrane polyspecificity reagent, FACS + sequencing; frameworks hold sequencing errors
measured-parameter: polyreactivity (PSR sort gate)

[[record]]
monomer_sequence = "QVQLVESGGGLVQAGGSLRLSCAASGRTIYYYAMGWYRQAPGKERELVAAINYGSGGSTYYADSVKGRFTISRDNAKNTVYLQMNSLKPEDTAVYYCNARRQDWPRKAYGYWGQGTQVTVSS"
readout_value = "high polyreactivity"

[[record]]
monomer_sequence = "QVQLVESGGGIVQAGGSLRLSCAASGYTFGRYAMGWYRQAPGKERELVAGIRWRGGSTYYADSVKGRFTISRDNAKNTVYLQMNSLKPEDTAVYYCAAYGYPVYYNYHYDYWGQVTQVTVSS"
readout_value = "high polyreactivity"

[[record]]
monomer_sequence = "QVQLVESGGGLVQAGGSLRISCASSVRILGVYFMGWYRQAPGKERELVAAISGGGRTNYADSVKGRFTISRDNAKNTVYFQMNRLNPEDTAVYYCNAERPYQFYQCIYSWYYYWGQGTQVTVSS"
readout_value = "low polyreactivity"

[[record]]
monomer_sequence = "QVQLVESGGGLVQAGGSLRLSCAASGLIFPRYAMGWYRQAPGKERELVAAITSRAGSTYYADSVKGRFTISRDNAKNTVYLQMNSLKPEDTAVYYCAAVSDGWDGDMYYWGQVTQVTVSS"
readout_value = "low polyreactivity"

[[record]]
monomer_sequence = "QVQHVESVGGLVQAGGSLPLSCDASGSIFGPNAMGWYRQAPGKESELVAAISGSGGSTYYADSVKGRFTISRDNAKNTVYLQMNSLKPEATAVYYCAADLDGTLSVYDYHTTGDDYWGQGTQVTVSS"
readout_value = "low polyreactivity"


Consider the sequence QVQLVESGGGLVQAGGSLRLSCAASVSTFYRNAMGWYRQAPGKERELVADISASGGSTYYADSVKGRFTISRDNAKNTVYLQMNSLKPEDTAVYYCNALYFYFYNYLTIVYWGQGTQVSVSS and give its measured polyreactivity (PSR sort gate). low polyreactivity

Could you share which polyreactivity (PSR sort gate) value was measured for QVHLVESGGGLVQAGGSLRLSCAASGSIFYVYAMGWYRQAPGKERELVAAITSSGTTNYADSVKGRFTISRDNAKNTVYLQMNSLKPEDTAVYYCAADPDSGQVPFDYWGQGTQVTVSS ? low polyreactivity

====

# test-summary: yeast display, Sf9 membrane polyspecificity reagent, FACS + sequencing; frameworks hold sequencing errors
measured-parameter: polyreactivity (PSR sort gate)

[[record]]
monomer_sequence = "QVQLQESGGGLVQAGGSLRLSCAASGSISSRDAMGWYRQAPGKEREFVATIASGTTTYYADSVKGSFTISRDNAENTVYLQTNSLKPEDTAVYYCAAPTIQIYPFYYWGQGTQVTVSS"
readout_value = "high polyreactivity"

[[record]]
monomer_sequence = "QVKLVESGGGLVHAGGSLRLSCSASGRIIGFNAMGVYRQAPGKERELVASIRTTGGSTRYADSVKGRFTISRDNAKNTVSLQMNSLKPEDTAVYYCAARWGKTRWQYNYWGHGTQVTVSS"
readout_value = "high polyreactivity"

[[record]]
monomer_sequence = "QVHLVESGGGLVQAGGSLRLSCAASGITFAWYAMGRYRQAPGKERELVAAITRGGGSTYYADSVKGRFTISRDNAKNTGYLQMNSLKPEDTAVYYCAARPYSYPYGYWGQGTQVTVSS"
readout_value = "low polyreactivity"

[[record]]
monomer_sequence = "QVQLVESGGGLVQAGGSLRLSCAASGIIFRVNAMGWYRQAPGKERELVAAISSGGRTYYADSVKGRFTISRDNAKNTVYLQMNSLKPEDTAVYYCAAKPPSTYDYWGQGTQVTVSS"
readout_value = "high polyreactivity"

[[record]]
monomer_sequence = "QVQLVESGGGLVQAGGSLRLSCAASGRTFPSYAMGWYRQAPGKERELVAVIRGGGSTKYADSVKGRFTISRDNAKNTVYLQMNSLKPEDTAVYYCATRGYPKFNYIYYYWGQGTQVTVSS"
readout_value = "high polyreactivity"

[[record]]
monomer_sequence = "QVQLVESGGGLVQAGGSLRLSCAASGSTFPVNTMGWYRQAPGKERELVAAISSDDNTNYADSVKGRFTISRDNAKNTVYLQMNSLKPEDTEVYYCAVKGHPAYVEVPPRYAWEFDYWGQGTQVTVSS"
readout_value = "low polyreactivity"


Name the reported polyreactivity (PSR sort gate) value associated with the sequence QVQLVESGGGLVQAGGSLRLSCAASGRTFLYNAMGWYRQAPGKERELVASISYSGGSTYYADSVKGRFTISRDTAKYTVYLQMNSLKPEDTAGYYCAARFYASQDIRYDYWGQGTQVTVSS high polyreactivity

# lookup: polyreactivity (PSR sort gate) of QVQLVESGGGLVQAGGSLRLSCAASGRIFSYNARGWYRQAPGKERELVAAISSDGSTYYADSVKGRFTISRDNAKNTVYLQMNSRKPEDTAVYYCAARQVLWFDYTTAQVGSYKVNSWGQGTQVTVSS low polyreactivity

GET /values?readout=polyreactivity (PSR sort gate)&item= QVQLVESGGGLVQAGGSLRLSCAASGRTFGFYAMGWYRQAPGKERELVAGINNRGSGTYYADSVKGRFTISRDNAKNTVYLLMNSLKPEDTAVYYCAAGRRAKSRTWVNIRYDYWGQGTQVTVST high polyreactivity

Given QVQLVESGGGLVQAGGSLRLSCAASGSIFYSNAMGWYRQAPGKERELVAAITWRGGSTYYADSVKGRFTISRDNAKYTVYLQLNSLKPEDTAVYYCNADGSARTPYYYRWYRYGYWGQGTQVTVSS , state its recorded polyreactivity (PSR sort gate). high polyreactivity

Look at this sequence and give its reported polyreactivity (PSR sort gate). QVQLVESGGGLVQAGGSLRLSCAASRIFRGYAMGWYRQAPGKERELVAAIRRGGSTNYADSVKGRFTISRDNAKNTVYLQMNCLKPEVTAVYYCNAYLYLPRYDYWGQGTQVTVSS high polyreactivity
